Biological target: T1, human interleukin-1 receptor on cells (MRC-5 human embryonic lung fibroblasts; human blood cells) (human, UniProt P14778 18-569)
T1 sequence (looked up): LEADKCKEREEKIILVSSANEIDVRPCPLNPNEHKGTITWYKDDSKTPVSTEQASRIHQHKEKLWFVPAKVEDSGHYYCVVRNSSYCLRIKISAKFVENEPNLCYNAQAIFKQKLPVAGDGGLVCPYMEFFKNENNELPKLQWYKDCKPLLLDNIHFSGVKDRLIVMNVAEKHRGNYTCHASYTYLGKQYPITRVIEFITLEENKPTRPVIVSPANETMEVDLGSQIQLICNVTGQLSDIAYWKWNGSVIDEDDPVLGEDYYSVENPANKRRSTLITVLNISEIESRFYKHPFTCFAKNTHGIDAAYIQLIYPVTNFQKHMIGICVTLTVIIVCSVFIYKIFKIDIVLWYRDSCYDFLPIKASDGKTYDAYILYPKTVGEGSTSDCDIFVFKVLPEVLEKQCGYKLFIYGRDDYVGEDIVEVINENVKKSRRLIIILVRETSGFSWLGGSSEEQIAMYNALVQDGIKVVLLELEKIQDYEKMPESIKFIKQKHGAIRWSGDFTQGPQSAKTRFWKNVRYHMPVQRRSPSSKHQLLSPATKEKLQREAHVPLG
Assay: cell-based or functional assay
Quick reference: Bioassay (IC50 in relation to 2D8), Mean of the listed items.

binder | Bioassay (IC50 in relation to 2D8), Mean
DEI5/8 (antibody, human IgG4, kappa, V domains shown, also called combination of HURDIVHv5 and HURDIVKv8) VH: QLQLQESGPGLVKPSQTLSLTCTVSGLSLTSNSITWIRQPPGKGPEWMGMIWSNGDTDYSTSLKSRLTISKDTSKSQVVLTMTNMDPVDTATYYCARYNYYFDYWGQGTLVTVSS VL: DIVLTQSPATLSLSPGERATLSCKASQNVDNRGVSYVHWYQQKPGQAPKLLIYKGSNLAFGVPSRFSGSGSGTDFTLTISSLQPEDFATYFCQQSKGHPDTFGAGTKLELKR | 2 relative to 2D8
antibody 2D8 (rat monoclonal antibody against human interleukin-1 receptor, from hybridoma cell line MAK<h-IL-1RI>2D8, DSM ACC 2601) (antibody, V domains shown) VH: QLQLKESGPGLVQPSQTLSLTCTVSELSLTSNSITWIRQPPGRGLEWMGMIWSNGDTDYNSAFTSRLSISRDTSKSQVFLKMNSLQTEDSAMYFCARYNYYFDYWGQGVMVTVSS VL: DIVLTQAPVLAVSLEQRATISCKASQNVDNRGVSYVHWYQQKPRQQPKLLIYKGSNLAFGVPARFSGSGSRTDFTLTIDPVETDDFATYYCQQSKGHPDTFGAGTKLEL | 1 relative to 2D8
DEI5/9 (antibody, V domains shown) VH: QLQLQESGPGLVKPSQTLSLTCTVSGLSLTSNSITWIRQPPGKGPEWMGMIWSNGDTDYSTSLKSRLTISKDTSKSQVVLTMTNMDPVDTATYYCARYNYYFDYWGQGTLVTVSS VL: DIVLTQSPATLSLSPGERATLSCKASQNVDNRGVSYVHWYQQKPGQAPKLLIYKGSNLAFGVPSRFSGSGSGTDFTLTISSLQPEDFATYYCQQSKGHPDTFGAGTKLELK | 2.2 relative to 2D8
